- experimental.system: human CXCR3 (N-delta 4) (Homo sapiens)
- Construct: CD8 leader (N); Flag tag; expressed in transfected cells; membranes
- Sequence (P49682 5-368 limits assumed): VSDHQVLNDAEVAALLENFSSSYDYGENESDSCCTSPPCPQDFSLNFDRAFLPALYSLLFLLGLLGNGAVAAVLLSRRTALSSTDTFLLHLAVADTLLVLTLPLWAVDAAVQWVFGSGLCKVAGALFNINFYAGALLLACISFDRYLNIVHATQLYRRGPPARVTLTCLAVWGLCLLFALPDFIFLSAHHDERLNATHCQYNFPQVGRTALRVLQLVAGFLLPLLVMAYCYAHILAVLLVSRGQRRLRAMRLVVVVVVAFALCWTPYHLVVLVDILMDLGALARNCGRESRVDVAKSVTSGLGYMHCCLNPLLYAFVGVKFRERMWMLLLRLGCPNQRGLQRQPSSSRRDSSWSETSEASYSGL
- test.method.notes: Human CXCR3 (N-delta 4) Scintillation Proximity Assay (SPA), [125I] IP-10 binding
- measurement.setup: IC50 rating; [125I] IP-10 displacement, Ba/F3-hCXCR3 (N-delta 4) membranes
pIC50: −log10 of the molar value.
The following molecules are shown together with reported pIC50 values.

{"columns": ["item.smiles", "pIC50"],
 "data": [
  ["CC[C@H]1CN(c2ncc(-c3ncc[nH]3)cc2Cl)CCN1C1CCN(C(=O)c2ccc(C#CC(C)(C)NS(N)(=O)=O)cc2)CC1", "< 7.00"],
  ["CC[C@H]1CN(c2ncc(-c3ncc[nH]3)cc2Cl)CCN1C1CCN([C@@H](C(=O)N(C)C)c2ccc(Cl)cc2)CC1", "> 7.60"],
  ["CC[C@H]1CN(c2ncc(-c3ncc[nH]3)cc2Cl)CCN1C1CCN(Cc2ccc(C#CC(C)(C)NS(=O)(=O)NC(=O)OC(C)(C)C)cc2)CC1", "< 7.00"],
  ["CC[C@H]1CN(c2ncc(-c3ncc[nH]3)cc2Cl)CCN1C1CCN([C@H](C(=O)N(C)C)c2ccc(Cl)cc2)CC1", "< 7.00"],
  ["CC[C@H]1CN(c2ncc(-c3nnco3)cc2Cl)CCN1C1CCN(Cc2ccc(Cl)cc2F)CC1", "> 7.60"],
  ["CC[C@H]1CN(c2ncc(-c3ncc[nH]3)cc2Cl)CCN1C1CCN([C@H](CO)c2ccc(Cl)cc2)CC1", "> 7.60"]
]}
